Catalogue of compounds with associated normalized growth
- method summary: chemical genetic growth profiling, strain panel (AID 1159580);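 also: tested at 20 µM; growth read once vehicle control cultures reached saturation at 30 °C; 1 = growth at the plate median or of vehicle wells; lower values mean less growth of the strain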
- test parameters: S. cerevisiae deletion strains, growth OD, locus YLR370C, strain arc18, stronger effect = lower value
In all, about 5,500 compounds went through this assay and about 2,000 (36%) were called active. About 18% were inconclusive and are not listed. The list shows a part of the results.
result type: normalized growth

{"compound": "COC(=O)[C@@]1(C)CCC[C@]2(C)c3ccc(O)c(C(C)C)c3CCC12 (some centres undefined)", "observed": 1.01}
{"compound": "CC1(C)C(=O)C=C[C@@]2(C)C1C=C[C@]1(C)C2CC[C@@]2(C)[C@H](c3ccoc3)OC(=O)C3OC321 (some centres undefined)", "observed": 0.988}
{"compound": "CC1(C)O[C@H]2CC(=O)OC[C@]23[C@H]2CC[C@@]4(C)[C@H](c5ccoc5)OC(=O)[C@H]5O[C@]54[C@]2(C)C(=O)C[C@@H]13", "observed": 0.97}
{"compound": "CC1(C)C(=O)C=C[C@@]2(C)C1CC(=O)[C@]1(C)C2CC[C@@]2(C)[C@H](c3ccoc3)OC(=O)[C@H]3O[C@]321 (some centres undefined)", "observed": 0.99}
